Hey, just so you know, these numbers are from the supplement of paper PMC11061612.

- Test system: HeLa (Cervical Carcinoma)
- methodDescription: Bliss excess, mean over the matrix (fraction); higher = more synergy
readoutLabel: Bliss excess
Please reply with the number alone, leaving off any unit.

IN: Which Bliss excess value belongs to Cc1nc(Nc2ncc(C(=O)Nc3c(C)cccc3Cl)s2)cc(N2CCN(CCO)CC2)n1 [Dasatinib] + CC(=O)Nc1cccc(-n2c(=O)n(C3CC3)c(=O)c3c(Nc4ccc(I)cc4F)n(C)c(=O)c(C)c32)c1 [Trametinib] (first compound max 2 µM, 7x7, partner max 1 µM) ?
OUT: -0.0672

IN: Which Bliss excess value belongs to CC(=O)c1c(C)c2cnc(Nc3ccc(N4CCNCC4)cn3)nc2n(C2CCCC2)c1=O [Palbociclib] + CC1(C)CCC(CN2CCN(c3ccc(C(=O)NS(=O)(=O)c4ccc(NCC5CCOCC5)c([N+](=O)[O-])c4)c(Oc4cnc5[nH]ccc5c4)c3)CC2)=C(c2ccc(Cl)cc2)C1 [Venetoclax] (first compound max 10 µM, 7x7, partner max 1 µM) ?
OUT: -0.0473

IN: Which Bliss excess value belongs to Cc1c2c(nn1C)CSCc1cc(n(C)n1)CSc1cc(c3ccccc3c1)OCCCc1c(C(=O)O)n(C)c3c-2c(Cl)ccc13 [AZD5991] + Cn1cnc2c(F)c(Nc3ccc(Br)cc3Cl)c(C(=O)NOCCO)cc21 [Selumetinib] (first compound max 1 µM, 7x7, partner max 3 µM) ?
OUT: -0.004

* * *

- Tested on: SNU-449 (Hepatocellular Carcinoma)
- methodDescription: Bliss excess, mean over the matrix (fraction); higher = more synergy
readoutLabel: Bliss excess
Please reply with the number alone, leaving off any unit.

Sample records with Bliss excess:
compound="C[C@@H]1COCCN1c1cc(C2([S@](C)(=N)=O)CC2)nc(-c2ccnc3[nH]ccc23)n1 [AZD6738] + O=C(c1cc(Cc2n[nH]c(=O)c3ccccc23)ccc1F)N1CCN(C(=O)C2CC2)CC1 [Olaparib] (first compound max 10 µM, 7x7, partner max 10 µM)" readoutlabel="Bliss excess" numericreadout=0.0007
compound="Cc1c2c(nn1C)CSCc1cc(n(C)n1)CSc1cc(c3ccccc3c1)OCCCc1c(C(=O)O)n(C)c3c-2c(Cl)ccc13 [AZD5991] + CN(C)CCCOc1ccc(-c2ccc3ncc4c(c3c2)n(C2CCOCC2)c(=O)n4C)cn1 [AZD0156] (first compound max 1 µM, 7x7, partner max 1 µM)" readoutlabel="Bliss excess" numericreadout=-0.0243

Next item in the queue.
IN: GET /values?readout=Bliss excess&system=SNU-449 (Hepatocellular Carcinoma)&item= Cc1c2c(nn1C)CSCc1cc(n(C)n1)CSc1cc(c3ccccc3c1)OCCCc1c(C(=O)O)n(C)c3c-2c(Cl)ccc13 [AZD5991] + Cn1cnc2c(F)c(Nc3ccc(Br)cc3Cl)c(C(=O)NOCCO)cc21 [Selumetinib] (first compound max 1 µM, 7x7, partner max 3 µM)
OUT: -0.0846

* * *

- Tested on: GAMG (Glioblastoma)
- methodDescription: combination Emax (second highest fraction inhibited in the dose matrix, 72 h); higher = more inhibition; extreme values may be limits of the assay
readoutLabel: combination Emax
Please reply with the number alone, leaving off any unit.

molecule="N#Cc1cnc(Nc2cc(NC[C@H]3CNCCO3)c(C(F)(F)F)cn2)cn1 [SRA737] + Nc1ccn([C@@H]2O[C@H](CO)[C@@H](O)C2(F)F)c(=O)n1 [Gemcitabine] (first compound max 10 µM, 7x7, partner max 0.3 µM)" numericreadout=0.892

IN: Which combination Emax value belongs to NC1(C(=O)N[C@@H](CCO)c2ccc(Cl)cc2)CCN(c2ncnc3[nH]ccc23)CC1 [Capivasertib] + CCN(CCO)CCCOc1ccc2c(Nc3cc(CC(=O)Nc4cccc(F)c4)[nH]n3)ncnc2c1 [AZD2811] (first compound max 10 µM, 7x7, partner max 1 µM) ?
OUT: 0.669
